Each item that follows carries a reported Sox 17 Intensity average.
- Tested on: H1 or H9 human embryonic stem cells
- test.details: Activin A bioassay: differentiation of human embryonic stem cells to definitive endoderm, cell number and SOX17 intensity by high content analysis (96-well, four days);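 note: total fluorescence of the cell multiplied by cell area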
- Format: cell-based
- setup.conditions: supernatant concentration 1x, assay dilution 1:20
# respond with the number and nothing more

Completed entries (count: 4):
* ACTN39: activin A variant peptide, SEQ ID 40 (protein) GLECDGKVNLCCKKQNFVSFKDIGWNDWIIAPSGYHANECSGLCPSHIAGTSGSSLSFHSTVINHYRMRGHSPFSDMGSCCVPTKLRPMSMLYYDDGQNIIKKDIQNMIVEECGCS | 5.13E+04
* ACTN44: activin A variant peptide, SEQ ID 45 (protein) GLECDGKVNLCCKKQNFVSFKDIGWNDWIIAPSGYHANECSGKCPSHIAGTSGSSLSFHSTVINHYRMRGHSPFSDMGACCIPTKLRPMSMLYYDDGQNIIKKDIQNMIVEECGCS | 5.01E+04
* ACTN63: activin A variant peptide, SEQ ID 64 (protein) GLECDGKVNICCKKQSFSQAKDIGWNDWIIAPSGYHGGGCTGECPSHIAGTSGSSLSFHSTVINHYRMRGHSPFANLKSCCSPTKLRPMSMLYYDDGQNIIKKDIQGMVVEECGCT | 1.07E+06
* ACTN14: activin A variant peptide, SEQ ID 15 (protein) GLECDGKVNLCCKKQHFVSFKDIGWNDWIIAPSGYHANRCDGLCPSHIAGTSGSSLSFHSTVINHYRMRGHSPFAQMGSCCVPTKLRPMSMLYYDDGQNIIKKDIQNMIVEECGCS | 1.50E+06

Inquiry: Quick one: Sox 17 Intensity average for ACTN57: activin A variant peptide, SEQ ID 58 (protein) GLECDGKVNICCKKQSFGQAKDIGWNDWIIAPSGYHGGGCSGECPSHIAGTSGSSLSFHSTVINHYRMRGHSPWANLKSCCSPTKLRPMSMLYYDDGQNIIKKDIQNMKVEECGCT ?
Reply text: 9.99E+05

Inquiry: Quick one: Sox 17 Intensity average for ACTN90: activin A variant peptide, SEQ ID 91 (protein) GLECDGKVNICCKKQSFGQTKDIGWNDWIIAPSGYHGGSCSGECPSHIAGTSGSSLSFHSTVINHYRMRGHSPFANLKSCCSPTKLRPMSMLYYDDGQNIIKKDIQNMKVEECGCT ?
Reply text: 1.34E+06

Inquiry: Quick one: Sox 17 Intensity average for ACTN2: activin A variant peptide, SEQ ID 3 (protein) GLECDGKVNLCCKKQNFVSFKDIGWNDWIIAPSGYHANECTGKCPSHIAGTSGSSLSFHSTVINHYRMRGHSPFSDLGSCCIPTKLRPMSMLYYDDGQNIIKKDIQNMIVEECGCS ?
Reply text: 1.756E+07

Data provenance is patent US20110091971A1.
